# experimental.details: AUC in Hartley guinea pig at 10 mg/kg, po
# Format: ADME, organism-based, Cavia porcellus
# Design: dose 10 mg/kg, route oral
# run.conditions: plasma
observation.type: AUC

>>> measured("O=C(O)COc1cccc(CCCn2nc(C(c3ccccc3)c3ccccc3)ccc2=O)c1")
"2400 ng·h/mL"
>>> measured("O=C(O)CCCOc1cccc(CCCn2nc(C(c3ccccc3)c3ccccc3)ccc2=O)c1")
"4850 ng·h/mL"
>>> measured("COc1ccc(C(=O)N(CCCc2cccc(OCC(=O)O)c2)CCC(c2ccccc2)c2ccccc2)cc1")
"270 ng·h/mL"
>>> measured("O=C(O)COc1cccc(CCCn2cc(C(c3ccccc3)c3ccccc3)ccc2=O)c1")
"5950 ng·h/mL"
>>> measured("O=C(O)CCCOc1cccc(CCCn2cc(C(c3ccccc3)c3ccccc3)ccc2=O)c1")
"1020 ng·h/mL"
